System: COLO 205 colon
Assay: NCI-60 one-dose screen, 48 h
Details: 10 µM unless noted
This is part of a sample that, as a whole, favours compounds with a hit. Of some 83,000 tested, about 20% had one in any assay. Activity calls are given as the source filed them. Rule for the calls: active = growth percent below 10; inactive = the rest.
Tick one outcome: active, inactive

Identify the outcome logged in this assay for the compound shown: NS(=O)(=O)c1cn(-c2ncnc3nc[nH]c23)ccc1=O
inactive

GET /call?item= O=c1oc2ccc(Cl)cc2cc1-c1cs/c(=N/N=C\c2ccc(Cl)cc2)n1/N=C/c1ccc(Cl)cc1 returns the recorded outcome of this test.
inactive

Entry O=C1C=CC(=Nc2cc(Br)c(O)c(Br)c2)C=C1 : call = ?
inactive

I would be grateful if you could indicate the recorded call for COc1ccc(NC(=O)C(=O)c2c[nH]c3ccc(F)cc23)cc1 .
inactive

For CCOC(=O)c1sc(-c2ccc(OS(=O)(=O)c3ccc(C(C)(C)C)cc3)c(C=O)c2)nc1C , what call appears in the results of this test?
inactive

State the result this test recorded for COc1ccc(OC)c(/C=C2\COc3ccc(O)cc3C2=O)c1 .
inactive

Hello, I am checking results. What call was entered for CC(=O)Nc1ccc(C(=O)/C=C/c2ccccc2)cc1 ?
inactive

Any idea what this test logged for C=C1C(=O)O[C@H]2[C@H]1CC/C(COC(=O)/C=C\C(=O)NCc1ccc(Cn3c(=O)sn(-c4ccc(OC)cc4)c3=O)cc1)=C\CC[C@@]1(C)O[C@@H]21 ?
active

Could you please tell me the result logged for COc1cc(/C=C/c2nc(Nc3ccc(S(=O)(=O)Nc4cc(C)on4)cc3)c3ccccc3n2)ccc1O in this assay?
inactive

Dear colleague, could you share the recorded outcome for O=[N+]([O-])c1cccc(/C=C/c2ccccn2)c1 when you have a moment?
inactive

====

System: SK-MEL-5 melanoma
Test: NCI-60 one-dose screen, 48 h
Conditions: 10 µM unless noted
Compounds without any hit were thinned out: in the full panel of roughly 83,000, 20% have a hit. Active and inactive are the calls of the source. How the source made its calls: active means growth percent below 10; inactive means the rest.
Respond with a class label; see True = active, False = inactive

So what was the verdict on CN1CCN(C2=C(Cl)C(=O)c3ccccc3C2=O)CC1 in this test?
False

Kindly provide the recorded test outcome for the following molecule: Cn1ccc(Cc2cnc(N)s2)n1
False

Could you check what this test reported for O=C(c1ccccc1)c1ccc(N2C(=O)C3C4c5ccccc5C(/C=C/C(=O)c5ccccn5)(c5ccccc54)C3C2=O)cc1 (stereo not given) ?
False

For this molecule, state the assay outcome: CCCN1CCN(c2ccc3nc(-c4ccc5nc(-c6ccc(OCC)c(OCC)c6)[nH]c5c4)[nH]c3c2)CC1
True

For this molecule, state the assay outcome: CN1C(=O)CCC(N2C(=O)c3cccc(NCCOCCOCCNC(=O)c4cc5c(o4)C(=O)c4ccccc4C5=O)c3C2=O)C1=O (stereo not given)
True

Test call for this molecule, please: O=C1CCC(N2C(=O)c3cccc(NCCCC4CCN(CCNC(=O)c5cc6c(o5)C(=O)c5ccccc5C6=O)CC4)c3C2=O)C(=O)N1 (stereo not given)
True

Could you kindly confirm the outcome this assay logged for CCCCN(CCCC)CCCn1c(=O)c2sc3ncccc3c2n2nnc(-c3ccccc3)c12 ?
False

Per the assay record, what outcome was assigned to CCN(CC)S(=O)(=O)c1ccc(O)c(NC(=O)c2[nH]c(C)c(C(C)=O)c2CCc2ccc(Cl)cc2)c1 ?
True

How was CN(C)CCN1C(=O)c2cccc3c(-c4ccc(-c5nc6c7ccccc7c7ccccc7c6[nH]5)cc4)ccc(c23)C1=O classified in this test?
False

// return assay outcome for Cc1[nH]c(-c2nc3ccccc3[nH]2)c(C)c1C(=O)N1CCOCC1
False

Status in this test for O=C1Nc2ccccc2/C1=N/N=C/c1c[nH]c2ccccc12 ?
False

State the result this test recorded for CN(C)S(=O)(=O)n1cnc([C@@H]2[C@@H]3C(=O)OC[C@@H]3C[C@]23N=CN(Cc2ccccc2)C3=O)c1 .
False

Record lookup: outcome of this test for Cc1cc(=O)[nH]c(N/N=C/c2cc(Br)ccc2O)n1 ?
False

Recorded call for COc1cc(/C=C/C(=O)c2cccc(-n3cc(-c4ccccc4)[nH]c3=O)c2)cc(OC)c1OC ?
True

# lookup: test call for O=c1[nH]c(=O)n(C2CC(O)C(CO)O2)cc1CO (stereo not given)
False

Which outcome did this test record for the molecule CC(=O)Nc1nccs1 ?
False

Per the assay record, what outcome was assigned to CCN(CC)CC(=O)Nc1cccc(C(=O)OC(C)C)c1 ?
False

How was CCCCCCCCc1cc[n+](CC(=O)c2ccc(Br)cc2)cc1 classified in this test?
True

Per the records of this test, what outcome belongs to Cc1cnc(Nc2ccc(N3CCN(C)CC3)cc2)nc1Nc1ccc(Cl)c(NS(=O)(=O)C(C)(C)C)c1 ?
True

For Cc1nc(-c2ccccc2)cc2c(O)c(C(=O)N/N=C/c3ccc(N(C)C)cc3)[nH]c(=O)c12 , what call appears in the results of this test?
False

====

Test system: OVCAR-8 ovarian
Assay: NCI-60 one-dose screen, 48 h
Settings: 10 µM unless noted
The panel holds about 83,000 compounds, 20% with a hit somewhere; the sample as a whole holds those more often. Active and inactive are the calls of the source. Rule for the calls: active = growth percent below 10; inactive = the rest.
Log the outcome using a class from active, inactive

Lab log entry: COc1cc(CNC(=O)/C=C/C=C/c2ccc3c(c2)OCO3)ccc1OCc1cn(-c2ccc(Cl)c(Cl)c2)nn1 — outcome as called in the assay?
inactive

Dear colleague, could you share the recorded outcome for COC(=O)CNC(=O)C(=O)c1c(O)c(O)c(C(C)C)c2cc(C)c(-c3c(C)cc4c(C(C)C)c(O)c(O)c(C(=O)C(=O)NCC(=O)OC)c4c3O)c(O)c12 when you have a moment?
inactive

Write down the call the test reported for this molecule. Item: CCc1nc2ccccc2[nH]1
inactive

What classification did COc1cc(/C=C/C(=O)c2cccc(-n3cc(-c4ccc(Cl)cc4)[nH]c3=O)c2)cc(OC)c1OC end up with in this test?
inactive

What did this assay record as the result for NC(=O)c1c(NC(=O)c2ccc(C(F)(F)F)cc2Cl)sc2c1CCC(=O)C2 ?
inactive

Please state the recorded outcome for this molecule: CC12CC(C#N)CCC1O2 (centres undefined)
inactive

Just curious, what result did CN=C1C=CC(=C(c2ccc(N(C)C)cc2)c2ccc(N(C)C)cc2)C=C1 get here?
active

Please let me know the test result on file for CN(C)c1ccc(/C=C2\C=C(c3ccccc3)N(CCc3ccccc3)C2=O)cc1 .
inactive

Each molecule tested received a call. Report the one for COc1cc(-c2cc(-c3ccc(Nc4nc(Nc5ccccc5)nc(Nc5ccc(Cl)cc5)n4)cc3)nc(N)n2)cc(OC)c1OC .
inactive

====

Test system: K-562 leukemia
Assay: NCI-60 one-dose screen, 48 h
Details: 10 µM unless noted
This is part of a sample that, as a whole, favours compounds with a hit. Of some 83,000 tested, about 20% had one in any assay. The source made the active and inactive calls. Rule for the calls: active = growth percent below 10; inactive = the rest.
Return exactly one item of t = active, f = inactive

Please state the recorded outcome for this compound: CN(C)c1ccc(-c2cc(-c3ccc(Nc4nc(Nc5ccccc5)nc(Nc5ccc(Cl)cc5)n4)cc3)nc(N)n2)cc1
f

Each compound tested received a call. Report the one for C=C(C)[C@@H]1CC[C@]2(CN)CC[C@]3(C)[C@H](CC[C@@H]4[C@@]5(C)CCC(N)[C@@](C)(CO)[C@@H]5CC[C@]43C)[C@@H]12 (stereo partly specified) .
t

Please state the recorded outcome for this compound: O=S(=O)(Nc1ccsc1-c1nc(-c2ccccc2)no1)c1cc(Cl)cc(Cl)c1
f

Answer briefly: the call reported for O=C1CSC(c2ccc(O)cc2)N1c1nnc(Cn2cnnc2)o1 (stereo unspecified) in this assay.
f

Would you mind telling me which call this test gave CN(C)CCn1cc(-c2ccc3c(Nc4ccc(CC(=O)Nc5cccc(F)c5)cc4)ncnc3c2)cn1 ?
t

Which outcome was entered for the compound Oc1[nH]c2ccccc2c1/C=c1/cc2c(c(-c3ccc(F)cc3)n1)=Nc1ccccc1-2 in this test?
t

Which outcome was assigned to CCN(CC)CC(=O)Nc1cccc(C(=O)OC(C)C)c1 in this test?
f

For this compound, state the assay outcome: COc1cc2oc(-c3cccc(C(=O)Nc4ccc(C#N)cc4)c3)cc(=O)c2c(O)c1OC
f

Recorded test outcome, item COc1ccc(OC)c(/C=C2\COc3ccc(O)cc3C2=O)c1
t

Lab log entry: O=C(CC12CC3CC(CC(C3)C1)C2)NCCOCCOCCNC(=O)c1cc2c(o1)C(=O)c1ccccc1C2=O — outcome as called in the assay?
t

Which result was noted for this compound in the test: N=C(N)c1ccc(-c2ccc(-c3ccc(Cl)cc3Cl)o2)cc1
t

For this compound, state the assay outcome: CCO/C=N/C1=C(C#N)C(c2ccc(OC)cc2)c2c(c3ccccc3n(C)c2=O)O1 (stereo unspecified)
f

Please share the test call associated with COc1ccc(-c2cc(-c3ccc(Nc4nc(Nc5ccccc5)nc(Nc5ccc(Cl)cc5)n4)cc3)nc(N)n2)cc1 .
f

Hi, do you know how N#C/C=C(\c1ccc([N+](=O)[O-])cc1)n1nnc2cc(Cl)c(Cl)cc21 came out in this test?
f

Record request — test call for O=C(NCc1cccnc1)c1cc(-c2csc3c(=O)cc(N4CCOCC4)oc23)cc2c1OCCO2
f

Could you kindly confirm the outcome this assay logged for N=c1ccn2c(n1)OC1C(O)C(CO)OC12 (stereo unspecified) ?
f

Short answer needed: outcome of this test for CCCCC1COc2cccc3c(SCC(=O)N(C)c4cccc(Cl)c4)cc[n+]1c23 (stereo unspecified) ?
f

I would be grateful if you could indicate the recorded call for Cc1nc(Nc2ccc(NC(=S)Nc3ccccc3)cc2)c2ccccc2n1 .
f

Please let me know the test result on file for O=C1c2ccccc2C(=O)c2cc(Cn3cc[n+](Cc4ccc5ccccc5c4)c3)ccc21 .
f

Name the outcome recorded for O=C1C2=C(CCN(Cc3ccccc3)C2)N2CCN=C2N1Cc1ccc(C(F)(F)F)cc1 in the assay.
f

Can you look up the reported call for COC1=CC(c2ccc[nH]2)=N/C1=C\c1[nH]c(C)c(C(=O)OCCn2cc(CCC[C@@H]3Cc4cc(O)ccc4C4CC[C@]5(C)[C@@H](O)CC[C@H]5C43)nn2)c1C (stereo partly specified) for me?
f

Returns: the outcome recorded for C=C(C)[C@@H]1CC[C@@]2(C(=O)O)CC[C@]3(C)C(CCC4[C@@]5(C)CCC(OS(=O)(=O)c6ccccc6)C(C)(C)C5CC[C@]43C)C12 (stereo partly specified) in this assay.
f

Look up the recorded call for Cc1cc(-c2noc(C(F)(F)F)n2)ccc1N1CCN(c2cc(C(=O)N(C)C)no2)CC1 in this test.
f

For this compound, state the assay outcome: CS(=O)(=O)c1ccc(-c2[nH]c3ccc(F)cc3c2/C=N/NC(N)=S)cc1
t

Called result for Cc1cc(=O)[nH]c(N/N=C/c2cc(Br)ccc2O)n1
f

What call does the record list for CS(=O)(=O)c1ccc(-c2[nH]c3ccc(F)cc3c2/C=N/O)cc1 ?
f

# fetch the recorded call for N#Cc1c(NC(=O)c2ccc(Br)cc2)sc2c1CCCC2 here
f

Hi, sorry to bother you, what did the test record for CCNCCNc1cc(-c2ccc(C#N)cc2)c(C#N)c2nc3ccccc3n12 ?
f

Which outcome was entered for the compound CNC(=O)c1cc(Oc2ccc3nc(Nc4cc(Cl)cc(Cl)c4)ccc3c2)ccn1 in this test?
f

Please share the test call associated with Clc1ccc(/C=C/c2nc(Nc3ccc(Cl)cc3)c3ccccc3n2)cc1 .
f

Tell me the recorded outcome of this test for Cn1ccnc1C(=O)/C=C/c1ccc(C(=O)Nc2ccc(S(F)(F)(F)(F)F)cc2)cc1 .
t

Identify the outcome logged in this assay for the compound shown: COc1ccc(/C(C)=C(\c2ccc(Cl)cc2)c2ccc(OCCN3CCCCCC3)cc2)cc1F
t

Assay outcome for CCN(CC)S(=O)(=O)c1ccc(O)c(NC(=O)c2[nH]c(C)c(C(C)=O)c2CCc2ccc(Cl)cc2)c1 : what was it?
f

Per the assay record, what outcome was assigned to COc1cccc(-c2cnco2)c1OCc1c(C)c(COc2c(OC)cccc2-c2cnco2)c(C)c(COc2c(OC)cccc2-c2cnco2)c1C ?
f

Identify the outcome logged in this assay for the compound shown: C=C1C(=O)O[C@H]2[C@H]1CC/C(COC(=O)/C=C\C(=O)NCc1ccc(Cn3c(=O)sn(-c4ccc(C#N)cc4)c3=O)cc1)=C\CC[C@@]1(C)O[C@@H]21
t

Outcome? CCc1cc(Cc2cc(CC)cc(C(C)(C)C)c2O)c(O)c(C(C)(C)C)c1
t
